Tested on: Pseudomonas aeruginosa DSM 24068
assay text: Antibacterial activity (MIC, curve fitting)
Type: cell-based
run conditions: Table S12; ± standard error of the mean
observed property: MIC, P. aeruginosa

Exercise: # lookup: MIC, P. aeruginosa of CC(=O)OC[C@H]1O[C@@H]([S-])[C@H](OC(C)=O)[C@@H](OC(C)=O)[C@@H]1OC(C)=O.CCP(CC)CC.[Au+] [AF, auranofin, reference compound]
Solution: > 100 µM

Exercise: Consider next the compound `Cn1cc(C(=O)O)[n+](C)[c]1[Au-][c]1n(C)cc(C(=O)O)[n+]1C.[Cl-]` in the same way.
Solution: 62.4 ± 0 µM

Exercise: Thanks! And `COC(=O)c1cn(C)[c]([Au-][c]2n(C)cc(C(=O)OC)[n+]2C)[n+]1C.O=S(=O)([O-])C(F)(F)F` ?
Solution: > 100 µM

Continuing:
Exercise: Record request: MIC, P. aeruginosa value, item `Cn1cc(C(=O)O)[n+](C)[c]1[Au-]([Cl])([Cl])[c]1n(C)cc(C(=O)O)[n+]1C.[Cl-]`
Solution: > 100 µM

###

Tested on: Enterococcus faecium DSM20477
assay text: Antibacterial activity (MIC, curve fitting)
Format: cell-based
run conditions: Table S12; ± standard error of the mean
observed property: MIC, E. faecium (µM)
One number for each entry, in µM.

Exercise: Looking for the measured MIC, E. faecium of `CCOC(=O)c1cn(C)[c]([Au-][Cl])[n+]1C` , can you help?
Solution: 9.98

Switching to the query record.
Exercise: So what does the record say about MIC, E. faecium for `COC(=O)c1cn(C)[c]([Au-][Cl])[n+]1C` ?
Solution: 10.35

###

target desc: TrxR from E. coli (Escherichia coli, UniProt P0A9P4)
Sequence (P0A9P4 2-321): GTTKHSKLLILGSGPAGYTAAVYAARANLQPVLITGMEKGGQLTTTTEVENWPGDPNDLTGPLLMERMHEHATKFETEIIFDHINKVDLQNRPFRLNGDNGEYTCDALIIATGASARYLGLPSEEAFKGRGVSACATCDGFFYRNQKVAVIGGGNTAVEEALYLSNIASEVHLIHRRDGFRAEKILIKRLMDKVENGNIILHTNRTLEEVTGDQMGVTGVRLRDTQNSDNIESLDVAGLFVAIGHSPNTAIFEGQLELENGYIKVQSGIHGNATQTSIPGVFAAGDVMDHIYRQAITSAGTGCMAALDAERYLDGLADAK
assay text: Inhibition of isolated bacterial TrxR, DTNB-based assay
Type: biochemical
Design: purchased Sigma-Aldrich
run conditions: compounds at 0.5 µM; n = 2; Table S13
Assignment: determine reported TrxR activity, % of control for the given compounds.

Exercise: Would you kindly share the measured TrxR activity, % of control for `COC(=O)c1cn(C)[c]([Au-][c]2n(C)cc(C(=O)OC)[n+]2C)[n+]1C.O=S(=O)([O-])C(F)(F)F` ?
Solution: 106 % of control

Exercise: What about this compound? `CCOC(=O)c1cn(C)[c]([Au-][c]2n(C)cc(C(=O)OCC)[n+]2C)[n+]1C.F[B-](F)(F)F`
Solution: 115 % of control

# batch: return TrxR activity, % of control for each of the 6 compounds below
1. Cn1cc(C(=O)O)[n+](C)[c]1[Au-][Cl]
2. Cn1cc(C(=O)O)[n+](C)[c]1[Au-]([Cl])([Cl])[Cl]
3. CCOC(=O)c1cn(C)[c]([Au-]([Cl])([Cl])[c]2n(C)cc(C(=O)OCC)[n+]2C)[n+]1C.F[B-](F)(F)F
4. COC(=O)c1cn(C)[c]([Au-][Cl])[n+]1C
5. CCOC(=O)c1cn(C)[c]([Au-]([Cl])([Cl])[Cl])[n+]1C
6. COC(=O)c1cn(C)[c]([Au-]([Cl])([Cl])[c]2n(C)cc(C(=O)OC)[n+]2C)[n+]1C.O=S(=O)([O-])C(F)(F)F

Solution:
["94.6 % of control", "86.1 % of control", "93.5 % of control", "8.9 % of control", "28.5 % of control", "90.8 % of control"]
